B1: PRPH (parent)
chain: RTFGPPPSLSPGAFSYSSSSRFSS

Variants of: B1
MEASUREMENT_NOTES: protein stability index of a GFP-peptide fusion (GPS, HEK-293T) (PSI 1-6); higher = more stable;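 also: lentivirally expressed fusions sorted by FACS into six bins by GFP to DsRed ratio, PSI derived from sequencing read proportions per bin multiplied by bin number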
CONDITION_PARAMETERS: c terminus: a fixed tail appended
PROPERTY: protein stability index

[[record]]
mutation_string = "P11S"
value_reported = 3.04

[[record]]
mutation_string = "S15K"
value_reported = 3.29

[[record]]
mutation_string = "P5A"
value_reported = 2.76

[[record]]
mutation_string = "P7S"
value_reported = 3.26

[[record]]
mutation_string = "S20W"
value_reported = 2.09

[[record]]
mutation_string = "P5L"
value_reported = 2.07

[[record]]
mutation_string = "R1N"
value_reported = 3.7

[[record]]
mutation_string = "S17E"
value_reported = 3.59

[[record]]
mutation_string = "F22S"
value_reported = 4.18

[[record]]
mutation_string = "S19M"
value_reported = 2.26

[[record]]
mutation_string = "Y16K"
value_reported = 3.66

[[record]]
mutation_string = "S20P"
value_reported = 3.45

[[record]]
mutation_string = "G4Q"
value_reported = 3.26

[[record]]
mutation_string = "T2F"
value_reported = 2.46

[[record]]
mutation_string = "S19Y"
value_reported = 2.38

[[record]]
mutation_string = "P5W"
value_reported = 2.21

[[record]]
mutation_string = "G4E"
value_reported = 3.43

[[record]]
mutation_string = "S10N"
value_reported = 3.15

[[record]]
mutation_string = "G12R"
value_reported = 3.35

[[record]]
mutation_string = "G12I"
value_reported = 3.05

[[record]]
mutation_string = "F14Y"
value_reported = 2.87

[[record]]
mutation_string = "P11K"
value_reported = 2.44

[[record]]
mutation_string = "A13K"
value_reported = 3.42

[[record]]
mutation_string = "S24N"
value_reported = 3.44

[[record]]
mutation_string = "F22L"
value_reported = 3.72

[[record]]
mutation_string = "Y16C"
value_reported = 3.18

[[record]]
mutation_string = "L9E"
value_reported = 3.44

[[record]]
mutation_string = "S24E"
value_reported = 3.38

[[record]]
mutation_string = "R1I"
value_reported = 2.41

[[record]]
mutation_string = "S17W"
value_reported = 2.27

[[record]]
mutation_string = "P7H"
value_reported = 3.15

[[record]]
mutation_string = "S18K"
value_reported = 3.9

[[record]]
mutation_string = "S17A"
value_reported = 3.02

[[record]]
mutation_string = "S18C"
value_reported = 3.5

[[record]]
mutation_string = "R1Y"
value_reported = 2.4

[[record]]
mutation_string = "S23H"
value_reported = 3.02

[[record]]
mutation_string = "P5F"
value_reported = 2.61

[[record]]
mutation_string = "S15A"
value_reported = 3.27

[[record]]
mutation_string = "P11N"
value_reported = 3.12

[[record]]
mutation_string = "G12T"
value_reported = 3.31

[[record]]
mutation_string = "S17N"
value_reported = 3.71

[[record]]
mutation_string = "L9F"
value_reported = 3.39

[[record]]
mutation_string = "P5Y"
value_reported = 2.65

[[record]]
mutation_string = "P11T"
value_reported = 2.94

[[record]]
mutation_string = "P11C"
value_reported = 1.64

[[record]]
mutation_string = "S23P"
value_reported = 3.59

[[record]]
mutation_string = "G12Y"
value_reported = 2.93

[[record]]
mutation_string = "S18D"
value_reported = 2.94

[[record]]
mutation_string = "G4V"
value_reported = 2.37

[[record]]
mutation_string = "F14T"
value_reported = 4.16

[[record]]
mutation_string = "R21M"
value_reported = 2.8

[[record]]
mutation_string = "G4K"
value_reported = 2.26

[[record]]
mutation_string = "S20M"
value_reported = 3.05

[[record]]
mutation_string = "S24F"
value_reported = 1.96

[[record]]
mutation_string = "S18N"
value_reported = 3.22

[[record]]
mutation_string = "P7I"
value_reported = 2.53

[[record]]
mutation_string = "R1A"
value_reported = 3.18

[[record]]
mutation_string = "F14I"
value_reported = 3.17

[[record]]
mutation_string = "S10M"
value_reported = 3.61

[[record]]
mutation_string = "G4W"
value_reported = 2.22

[[record]]
mutation_string = "R21C"
value_reported = 3.19

[[record]]
mutation_string = "P5G"
value_reported = 2.84

[[record]]
mutation_string = "L9S"
value_reported = 3.8

[[record]]
mutation_string = "S17Y"
value_reported = 3.07

[[record]]
mutation_string = "P11G"
value_reported = 2.88

[[record]]
mutation_string = "F3L"
value_reported = 4.11

[[record]]
mutation_string = "G4L"
value_reported = 2.42

[[record]]
mutation_string = "Y16W"
value_reported = 3.36

[[record]]
mutation_string = "P5R"
value_reported = 2.71

[[record]]
mutation_string = "S8N"
value_reported = 3.5

[[record]]
mutation_string = "S15P"
value_reported = 3.03

[[record]]
mutation_string = "R21Q"
value_reported = 3.23

[[record]]
mutation_string = "F22P"
value_reported = 3.27

[[record]]
mutation_string = "S15E"
value_reported = 3.22

[[record]]
mutation_string = "F14Q"
value_reported = 4.01

[[record]]
mutation_string = "F3R"
value_reported = 3.41

[[record]]
mutation_string = "F3E"
value_reported = 3.72

[[record]]
mutation_string = "S20R"
value_reported = 3.41

